- Tested on: HCT-15
- Assay Procedure: Cytotoxicity against multidrug-resistant human HCT15 cells by thymidine incorporation assay
- Format: functional, cell-based
Peptide text beside a SMILES is read from it.
Metric Name: IC50 (nM)
Give bare numbers, in nM.

[ask] Can you share its IC50? I mean this compound: CC(C)C[C@@H]1NC(=O)[C@H](C(C)C)NC(=O)[C@H](CC(C)C)N(C)C(=O)[C@@H](CC(C)C)NC(=O)[C@@H](Cc2ccccc2)NC1=O (HELM PEPTIDE1{[dL].[meL].V.L.[dF]}$PEPTIDE1,PEPTIDE1,1:R1-5:R2$$$V2.0)
[reply] 2200
